- test.target: T1, monkey IL-25 expressed with a C-terminal myc-myc-hexahistidine tag (M. fascicularis (cynomolgus monkey))
- T1 chain: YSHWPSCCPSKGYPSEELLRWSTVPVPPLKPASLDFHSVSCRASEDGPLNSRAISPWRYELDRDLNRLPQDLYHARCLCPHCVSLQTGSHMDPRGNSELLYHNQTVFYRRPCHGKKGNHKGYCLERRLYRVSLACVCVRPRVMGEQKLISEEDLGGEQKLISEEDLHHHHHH
- test: cell-based or functional assay
Each entry below carries its reported IC50, luciferase reporter cells, 12 pM MfIL-25-MMH.
Return type: number; implicit unit M.

H4H10907P (antibody, human IgG4, V domains shown, H4H prefix = human IgG4 Fc) VH: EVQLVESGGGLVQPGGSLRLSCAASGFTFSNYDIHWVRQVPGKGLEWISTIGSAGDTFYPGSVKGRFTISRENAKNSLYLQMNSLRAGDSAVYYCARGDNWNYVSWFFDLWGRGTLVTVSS VL: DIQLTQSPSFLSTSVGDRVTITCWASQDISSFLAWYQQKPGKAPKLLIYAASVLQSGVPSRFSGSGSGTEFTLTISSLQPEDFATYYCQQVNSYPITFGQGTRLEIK
1.4e-10
H4H10897P (antibody, human IgG4, V domains shown, H4H prefix = human IgG4 Fc) VH: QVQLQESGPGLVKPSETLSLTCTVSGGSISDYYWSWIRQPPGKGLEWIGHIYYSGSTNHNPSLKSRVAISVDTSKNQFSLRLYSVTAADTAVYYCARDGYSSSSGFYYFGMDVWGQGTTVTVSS VL: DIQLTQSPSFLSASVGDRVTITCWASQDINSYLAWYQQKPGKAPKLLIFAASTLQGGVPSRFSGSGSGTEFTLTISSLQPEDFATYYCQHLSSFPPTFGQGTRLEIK
4e-10
H4H10871P (antibody, human IgG4, V domains shown, H4H prefix = human IgG4 Fc) VH: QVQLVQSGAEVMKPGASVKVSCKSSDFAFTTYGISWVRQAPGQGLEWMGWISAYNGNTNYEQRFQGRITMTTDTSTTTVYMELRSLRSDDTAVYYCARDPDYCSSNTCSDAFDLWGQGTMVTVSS VL: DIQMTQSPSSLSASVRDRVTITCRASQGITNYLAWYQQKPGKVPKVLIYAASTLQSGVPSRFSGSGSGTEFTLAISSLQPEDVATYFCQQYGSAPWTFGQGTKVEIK
8.8e-11

With those in mind, consider the next binder.
Fill in the blank: the reported IC50, luciferase reporter cells, 12 pM MfIL-25-MMH of H4H10861P (antibody, human IgG4, V domains shown, H4H prefix = human IgG4 Fc) VH: QVQLQESGPGLVKPSETLSLTCTVSGASISNYYWSWIRQPPGKGLEWIGYIFYSGNTNYNPSLKSRVTISVDTSKNQFSLKLSSVTAADTAVYYCARVRFSDYELNWFDPWGQGTLVTVSS VL: DIVMTQSPDSLAVFLGERATINCRSSQSVFLGSNNKNYLAWYQQKPGQPPKLLIYWASSRESGVPDRFSGSGSGTDFTLTINSLQAEDVAVYYCQQYFITPLTFGGGTKVEIK is ____.
3.7e-11

Reference for the values: patent US20160083466A1
